Hello, the source for this data is ChEMBL document CHEMBL1142459, in case you need it.

Biological target: DNA topoisomerase 2-alpha (Homo sapiens) (UniProt P11388)
Sequence (P11388 whole entry): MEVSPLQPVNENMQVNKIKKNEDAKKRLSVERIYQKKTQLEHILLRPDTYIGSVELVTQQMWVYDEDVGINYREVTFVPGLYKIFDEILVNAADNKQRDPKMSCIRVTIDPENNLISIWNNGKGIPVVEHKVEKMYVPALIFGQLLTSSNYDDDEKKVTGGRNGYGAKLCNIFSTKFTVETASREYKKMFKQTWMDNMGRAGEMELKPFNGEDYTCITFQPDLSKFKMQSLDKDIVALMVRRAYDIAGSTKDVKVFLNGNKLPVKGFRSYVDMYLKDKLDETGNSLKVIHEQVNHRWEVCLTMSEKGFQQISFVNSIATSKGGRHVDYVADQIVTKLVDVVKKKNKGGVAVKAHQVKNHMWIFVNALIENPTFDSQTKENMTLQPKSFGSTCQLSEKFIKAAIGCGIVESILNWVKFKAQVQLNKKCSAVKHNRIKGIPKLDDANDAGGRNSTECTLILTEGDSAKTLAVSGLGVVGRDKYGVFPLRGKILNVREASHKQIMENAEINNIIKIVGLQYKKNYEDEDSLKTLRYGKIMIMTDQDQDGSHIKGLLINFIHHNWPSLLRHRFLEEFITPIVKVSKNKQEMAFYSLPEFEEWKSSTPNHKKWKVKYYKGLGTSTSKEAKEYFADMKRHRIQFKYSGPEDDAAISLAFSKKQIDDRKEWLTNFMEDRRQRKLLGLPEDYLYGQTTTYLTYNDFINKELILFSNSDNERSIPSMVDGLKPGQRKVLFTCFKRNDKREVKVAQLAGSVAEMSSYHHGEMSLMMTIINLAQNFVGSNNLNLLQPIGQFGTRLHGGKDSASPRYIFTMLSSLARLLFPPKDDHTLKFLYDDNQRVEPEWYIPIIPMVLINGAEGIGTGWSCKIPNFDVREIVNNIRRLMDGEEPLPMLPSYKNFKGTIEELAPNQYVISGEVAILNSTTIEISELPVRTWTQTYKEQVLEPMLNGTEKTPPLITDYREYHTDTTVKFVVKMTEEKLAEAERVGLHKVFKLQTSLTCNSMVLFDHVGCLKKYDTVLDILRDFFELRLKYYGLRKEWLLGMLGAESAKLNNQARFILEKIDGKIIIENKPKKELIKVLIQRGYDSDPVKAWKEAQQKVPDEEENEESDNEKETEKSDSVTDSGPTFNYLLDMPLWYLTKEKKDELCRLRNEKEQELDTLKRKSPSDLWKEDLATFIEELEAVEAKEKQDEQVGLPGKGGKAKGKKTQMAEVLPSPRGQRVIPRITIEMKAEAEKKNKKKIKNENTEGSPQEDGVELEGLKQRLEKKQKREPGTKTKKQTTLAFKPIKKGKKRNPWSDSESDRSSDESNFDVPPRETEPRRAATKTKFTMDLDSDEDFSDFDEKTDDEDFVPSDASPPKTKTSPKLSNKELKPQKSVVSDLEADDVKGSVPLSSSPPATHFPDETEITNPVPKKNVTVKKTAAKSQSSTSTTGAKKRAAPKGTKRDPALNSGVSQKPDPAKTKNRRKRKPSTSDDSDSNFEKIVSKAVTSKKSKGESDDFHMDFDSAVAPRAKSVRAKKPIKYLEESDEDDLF
Test: Inhibition of human topoisomerase 2 alpha-mediated Crithidia fasciculate kDNA decatenation at 100 uM
The source made the active and inactive calls. The rule behind the calls is not given here.
Form entry, call: pick from 1 = active, 0 = inactive

Data request: Can you look up the reported call for `CC1(C)OC2=C(C(=O)C(=O)c3ccccc32)[C@@H]2c3c(ccc4ccccc34)OC[C@@H]21` for me?
Data returned: 1

Data request: Write down the call the test reported for this compound. Item: `COc1ccc2c(c1)OC[C@@H]1[C@H]2C2=C(OC1(C)C)C(=O)c1ccccc1C2=O`
Data returned: 1

Data request: Hey, what did the test say about `C[C@@H]1CC[C@H]2[C@H]1C1=C(OC2(C)C)C(=O)c2ccccc2C1=O` ?
Data returned: 0

Data request: In this assay, the call recorded for `COc1ccc2c(c1)OC[C@H]1[C@@H]2C2=C(OC1(C)C)c1ccccc1C(=O)C2=O` was what?
Data returned: 1

More entries:
Data request: # outcome recorded in this test, key = `CC1(C)OC2=C(C(=O)C(=O)c3ccccc32)[C@@H]2c3cc(Br)ccc3OC[C@@H]21`
Data returned: 1

Data request: Entry `CC1(C)OC2=C(C(=O)c3ccccc3C2=O)[C@H]2c3c(ccc4ccccc34)OC[C@H]21` : call = ?
Data returned: 0

====

Test system: Nucleic Acid
Assay: DNA intercalative activity assessed retardation in migration of negatively supercoiled small circular Escherichia coli pBSKS in agarose gel electrophoresis at 100 uM
Type: nucleic-acid assay
Activity calls are given as the source filed them. The rule behind the calls is not given here.
Tick one outcome: active, inactive

Data request: Which result was noted for this compound in the test: `COc1ccc2c(c1)OC[C@H]1[C@@H]2C2=C(OC1(C)C)c1ccccc1C(=O)C2=O`
Data returned: inactive

Data request: Recorded call for `CC1(C)OC2=C(C(=O)c3ccccc3C2=O)[C@H]2c3cc(Br)cc(Br)c3OC[C@H]21` ?
Data returned: inactive

Data request: What was the test verdict on `COc1cc([C@@H]2c3cc4c(cc3[C@@H](O[C@@H]3O[C@@H]5CO[C@@H](C)O[C@H]5[C@H](O)[C@H]3O)[C@H]3COC(=O)[C@H]23)OCO4)cc(OC)c1O` ?
Data returned: inactive

Data request: Check the results log: what was the call for `Cc1c2ccncc2c(C)c2c1[nH]c1ccccc12` ?
Data returned: active

Data request: Hi, sorry to bother you, what did the test record for `CC[n+]1c(-c2ccccc2)c2cc(N)ccc2c2ccc(N)cc21` ?
Data returned: active

Further cases:
Data request: Recorded call for `C[C@@H]1CC[C@H]2[C@H]1C1=C(OC2(C)C)C(=O)c2ccccc2C1=O` ?
Data returned: inactive

Data request: What classification did `CC1(C)OC2=C(C(=O)c3ccccc3C2=O)[C@H]2c3cc(Br)ccc3OC[C@H]21` end up with in this test?
Data returned: inactive

Data request: Assay outcome for `CC1(C)OC2=C(C(=O)C(=O)c3ccccc32)[C@@H]2c3cc(Br)ccc3OC[C@@H]21` : what was it?
Data returned: inactive

Data request: How did this test come out for `CC1(C)OC2=C(C(=O)C(=O)c3ccccc32)[C@@H]2c3c(ccc4ccccc34)OC[C@@H]21` ?
Data returned: inactive

====

Target: DNA topoisomerase 2-alpha (Homo sapiens) (UniProt P11388)
Test: Inhibition of human topoisomerase 2 alpha-mediated bacterial plasmid DNA relaxation assessed as pRYG negative supercoiled form added 100 uM after relaxation
Calls of active or inactive are those of the source. The rule behind the calls is not given here.
Return exactly one item of 1.0 for active, 0.0 for inactive

Data request: GET /call?item= `CC1(C)OC2=C(C(=O)C(=O)c3ccccc32)[C@@H]2c3c(ccc4ccccc34)OC[C@@H]21` returns the recorded outcome of this test.
Data returned: 0.0

Data request: # fetch the recorded call for `Cc1c2ccncc2c(C)c2c1[nH]c1ccccc12` here
Data returned: 0.0

Data request: Hey, what did the test say about `C[C@@H]1CC[C@@H]2[C@@H](C1)C1=C(OC2(C)C)C(=O)c2ccccc2C1=O` ?
Data returned: 0.0

Data request: Test call for this compound, please: `C[C@@H]1CC[C@H]2[C@H]1C1=C(OC2(C)C)C(=O)c2ccccc2C1=O`
Data returned: 0.0

Data request: Called result for `C[C@H]1CC[C@H]2[C@H](C1)C1=C(OC2(C)C)c2ccccc2C(=O)C1=O`
Data returned: 0.0

Data request: Identify the outcome logged in this assay for the compound shown: `COc1cc([C@@H]2c3cc4c(cc3[C@@H](O[C@@H]3O[C@@H]5CO[C@@H](C)O[C@H]5[C@H](O)[C@H]3O)[C@H]3COC(=O)[C@H]23)OCO4)cc(OC)c1O`
Data returned: 1.0

Data request: Look up the recorded call for `COc1ccc2c(c1)OC[C@@H]1[C@H]2C2=C(OC1(C)C)C(=O)c1ccccc1C2=O` in this test.
Data returned: 0.0

Data request: // param item: `C[C@H]1CC[C@@H]2[C@@H]1C1=C(OC2(C)C)c2ccccc2C(=O)C1=O` ; yields the recorded call
Data returned: 0.0

Further cases:
Data request: Which outcome was assigned to `CC1(C)OC2=C(C(=O)c3ccccc3C2=O)[C@H]2c3cc(Br)cc(Br)c3OC[C@H]21` in this test?
Data returned: 0.0

Data request: What outcome does the record of this test show for `CC1(C)OC2=C(C(=O)c3ccccc3C2=O)[C@H]2c3cc(Br)ccc3OC[C@H]21` ?
Data returned: 0.0
